Reference for the values: the supplement of paper PMC3545927

- target entity: furin, P09958;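 further: purified furin at 1:10 enzyme:substrate in 50 mM HEPES pH 7.5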
- Sequence (P09958 whole entry): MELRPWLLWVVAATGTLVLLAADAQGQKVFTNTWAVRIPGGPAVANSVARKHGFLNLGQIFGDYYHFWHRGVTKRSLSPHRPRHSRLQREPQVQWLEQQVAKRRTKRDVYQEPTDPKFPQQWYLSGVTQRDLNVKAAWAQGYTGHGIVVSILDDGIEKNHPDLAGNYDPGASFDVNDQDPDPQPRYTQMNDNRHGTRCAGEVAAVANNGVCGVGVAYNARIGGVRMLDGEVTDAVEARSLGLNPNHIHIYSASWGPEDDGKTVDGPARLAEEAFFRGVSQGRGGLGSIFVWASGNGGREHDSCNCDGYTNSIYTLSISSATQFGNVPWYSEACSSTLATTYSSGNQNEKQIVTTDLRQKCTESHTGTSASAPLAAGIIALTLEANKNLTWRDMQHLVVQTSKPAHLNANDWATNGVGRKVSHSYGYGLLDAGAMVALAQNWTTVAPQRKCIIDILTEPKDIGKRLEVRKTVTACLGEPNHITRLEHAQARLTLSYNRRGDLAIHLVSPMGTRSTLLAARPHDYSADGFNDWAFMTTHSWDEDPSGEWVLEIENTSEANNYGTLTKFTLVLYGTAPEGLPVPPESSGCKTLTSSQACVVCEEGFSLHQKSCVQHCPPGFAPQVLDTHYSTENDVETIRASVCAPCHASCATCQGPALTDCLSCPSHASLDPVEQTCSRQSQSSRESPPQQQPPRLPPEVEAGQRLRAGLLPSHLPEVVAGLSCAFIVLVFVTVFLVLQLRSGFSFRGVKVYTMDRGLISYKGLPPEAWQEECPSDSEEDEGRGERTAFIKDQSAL
- experiment description: furin cleavage Z-score vs untreated control; higher = more cleavage, active = 3.5 or more, inactive = 1 or less, 8 variable residues between constant flanks
- experimental conditions: 30 min
The other results are listed elsewhere or left out. No count for the full screen is at hand.
Recorded furin cleavage Z-score determines the label; the label ranges are Low = under -0.4, Medium = from -0.4 up to 2, High = 2 and over

residue codes | cat
CAANRRMKRIAGNASASA [FS-750] | High
CAVVCPSMSYAGNASASA [HC100] | Medium
CADDERSKRIAGNASASA [FS-221] | Low

Assign a bin to CAGFTKVCGAAGNASASA [HC440] Low

Category lookup for the sequence CANSSPPVVPAGNASASA [HC767] Medium
